biological target: recombinant HIV-1 NCp7 protein (Human immunodeficiency virus type 1 group M subtype B); construct: within the nucleocapsid p7 (NCp7) protein portion of the polyprotein; test: Trp37 zinc finger fluorescence (zinc ejection) assay; type: biochemical; conditions: Table 3; average decrease in relative fluorescence

| Molecule | Readout Units | Zinc Finger Reactivity RFU/ min |
| --- | --- | --- |
| CC(=O)Nc1ccc(S(=O)(=O)Nc2ccc(S(=O)(=O)c3ccc(-n4sc5ccccc5c4=O)cc3)cc2)cc1 | RFU/ min | 7.9 |
| O=c1c2ccccc2sn1-c1ccc(S(=O)(=O)c2ccc(NS(=O)(=O)Cc3ccccc3[N+](=O)[O-])cc2)cc1 | RFU/ min | 2 |
| CC(=O)Nc1ccc(S(=O)(=O)Nc2ccc(S(=O)(=O)c3ccc(NC(=O)c4ccccc4SSc4ccccc4C(=O)Nc4ccc(S(=O)(=O)c5ccc(NS(=O)(=O)c6ccc(NC(C)=O)cc6)cc5)cc4)cc3)cc2)cc1 [Compound 28D] | RFU/ min | 5.9 |
| O=C(Nc1ccc(S(=O)(=O)c2ccc(NC(=O)c3ccccc3SSc3ccccc3C(=O)Nc3ccc(S(=O)(=O)c4ccc(NC(=O)c5ccc([N+](=O)[O-])cc5)cc4)cc3)cc2)cc1)c1ccc([N+](=O)[O-])cc1 [Compound 32D] | RFU/ min | 2.9 |
| Nc1ccc(S(=O)(=O)c2ccc(NC(=O)c3ccccc3SSc3ccccc3C(=O)Nc3ccc(S(=O)(=O)c4ccc(N)cc4)cc3)cc2)cc1 [Compound 26D] | RFU/ min | 3.3 |

Just for reference, patent EP1087941B9 is where these values come from.
